- assay_system: Complex of human HDAC3 and human NCOR2 (Homo sapiens)
- Construct: full length with C-terminal His tag, MW=49.7 kDa; His (C); host or cells: baculovirus expression system (co-expressed)
- Sequence (O15379 whole entry): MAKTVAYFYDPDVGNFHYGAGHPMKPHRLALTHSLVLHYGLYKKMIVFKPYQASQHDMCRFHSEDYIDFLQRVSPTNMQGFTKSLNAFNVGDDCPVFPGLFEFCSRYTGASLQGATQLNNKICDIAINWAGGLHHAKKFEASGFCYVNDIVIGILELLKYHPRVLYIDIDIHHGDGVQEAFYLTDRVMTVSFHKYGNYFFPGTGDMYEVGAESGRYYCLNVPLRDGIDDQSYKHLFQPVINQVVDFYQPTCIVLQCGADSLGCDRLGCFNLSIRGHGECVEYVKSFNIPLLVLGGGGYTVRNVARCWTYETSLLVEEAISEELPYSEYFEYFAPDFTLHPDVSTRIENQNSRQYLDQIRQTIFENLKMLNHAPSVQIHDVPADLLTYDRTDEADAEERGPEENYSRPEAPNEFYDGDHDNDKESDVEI
- Sequence (Q9Y618 395-489 partner limits assumed): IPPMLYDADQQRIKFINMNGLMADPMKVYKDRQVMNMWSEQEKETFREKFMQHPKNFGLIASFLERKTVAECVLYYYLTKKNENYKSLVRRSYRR
- procedure_summary: HDAC3 biochemical assay, AMC-labeled peptide substrate
- condition_description: read-out: HDAC Isoform IC50 (nM) 3
- Experimental: Activity against all zinc-dependent HDACs 1 to 11 was assessed by using an acetylated AMC-labeled peptide substrate. The substrate RHKK(Ac)AMC was used for HDAC1, HDAC2, HDAC3, HDAC6 and HDAC10; the substrate used for HDAC8 was RHK(Ac)K(Ac)AMC. Activity against the class IIa HDACs (HDAC4, 5, 7, 9) and HDAC11 was determined using a class IIa-specific substrate, BOC-Lys(trifluoroacetyl)-AMC (“Trifluoroacetyl Lysine”; see Lahm et al, 2007, PNAS, 104, 17335-17340). […]
endpoint_name: IC50

# compound, IC50
rows = [
    ("OC1(c2cnnc(N(Cc3ccc(-c4noc(C(F)(F)F)n4)s3)c3cnccn3)c2)COC1 [Example GW]", "> 10000 nM"),
    ("O=C(c1ccc(N(Cc2ccc(-c3noc(C(F)(F)F)n3)s2)c2cnccn2)nn1)N1CCOCC1 [Example DS]", "≤ 10000 nM"),
    ("O=C(c1ccc(N(Cc2ccc(-c3noc(C(F)(F)F)n3)s2)c2cnccn2)nn1)N1CCC2(COC2)C1 [Example FJ]", "≤ 10000 nM"),
]

Now take the following compound into account.
Requested read-out: IC50. Entry: O=C(c1cnnc(N(Cc2ccc(-c3noc(C(F)(F)F)n3)s2)c2cnccn2)c1)N1C[C@H]2C[C@@H]1CO2 [Example FW]
≤ 10000 nM

* * *

- assay_system: Recombinant human HDAC6 (Homo sapiens, UniProt Q9UBN7)
- Construct: full length, MW=159 kDa; GST (N); host or cells: Sf9 insect cells (baculovirus)
- Sequence (Q9UBN7 whole entry): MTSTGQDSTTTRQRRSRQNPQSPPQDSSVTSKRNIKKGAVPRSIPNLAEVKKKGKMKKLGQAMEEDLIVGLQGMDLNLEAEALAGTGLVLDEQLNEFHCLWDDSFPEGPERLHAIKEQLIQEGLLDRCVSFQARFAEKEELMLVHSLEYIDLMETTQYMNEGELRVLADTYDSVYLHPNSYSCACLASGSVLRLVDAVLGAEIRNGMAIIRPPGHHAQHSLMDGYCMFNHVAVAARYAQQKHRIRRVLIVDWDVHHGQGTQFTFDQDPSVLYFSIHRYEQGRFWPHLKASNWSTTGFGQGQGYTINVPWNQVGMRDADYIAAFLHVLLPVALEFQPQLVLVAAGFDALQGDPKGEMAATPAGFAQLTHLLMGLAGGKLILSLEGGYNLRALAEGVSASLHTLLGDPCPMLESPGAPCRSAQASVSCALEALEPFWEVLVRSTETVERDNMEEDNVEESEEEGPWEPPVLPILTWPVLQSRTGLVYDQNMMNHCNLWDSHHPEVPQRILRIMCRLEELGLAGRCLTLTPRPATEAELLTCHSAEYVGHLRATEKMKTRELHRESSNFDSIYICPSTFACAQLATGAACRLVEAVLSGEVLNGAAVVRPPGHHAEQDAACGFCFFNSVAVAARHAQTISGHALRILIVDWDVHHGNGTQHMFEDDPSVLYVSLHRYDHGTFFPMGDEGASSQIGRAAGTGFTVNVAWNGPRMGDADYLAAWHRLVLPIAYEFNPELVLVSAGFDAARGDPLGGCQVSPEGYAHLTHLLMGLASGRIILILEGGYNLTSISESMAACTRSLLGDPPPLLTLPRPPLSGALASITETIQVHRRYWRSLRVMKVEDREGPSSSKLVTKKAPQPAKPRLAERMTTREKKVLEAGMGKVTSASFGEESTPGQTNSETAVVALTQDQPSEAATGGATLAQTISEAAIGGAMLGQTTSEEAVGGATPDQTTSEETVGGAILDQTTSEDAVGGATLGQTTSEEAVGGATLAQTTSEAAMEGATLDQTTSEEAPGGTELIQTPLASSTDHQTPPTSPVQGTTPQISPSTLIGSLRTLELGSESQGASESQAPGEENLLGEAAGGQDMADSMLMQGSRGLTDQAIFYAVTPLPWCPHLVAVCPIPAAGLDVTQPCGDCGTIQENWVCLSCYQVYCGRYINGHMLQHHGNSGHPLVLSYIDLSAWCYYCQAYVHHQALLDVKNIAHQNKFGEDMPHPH
- procedure_summary: HDAC6 biochemical assay, AMC-labeled peptide substrate
- condition_description: With assay conditions in the experimental section described herein; read-out: HDAC6 IC50
endpoint_name: pIC50
A value of pIC50 is the negative decimal logarithm of a concentration given in moles per litre.

// pIC50 lookup, key: `O=C(c1cnnc(N(Cc2ccc(-c3noc(C(F)(F)F)n3)s2)c2cnccn2)c1)N1CCOCC1`
7.00

* * *

- assay_system: Human HDAC9 (Homo sapiens, UniProt Q9UKV0)
- Construct: amino acids 604-1066 with C-terminal His tag; His (C); host or cells: baculovirus expression system
- Sequence (Q9UKV0 604-1066 isoform Q9UKV0-5): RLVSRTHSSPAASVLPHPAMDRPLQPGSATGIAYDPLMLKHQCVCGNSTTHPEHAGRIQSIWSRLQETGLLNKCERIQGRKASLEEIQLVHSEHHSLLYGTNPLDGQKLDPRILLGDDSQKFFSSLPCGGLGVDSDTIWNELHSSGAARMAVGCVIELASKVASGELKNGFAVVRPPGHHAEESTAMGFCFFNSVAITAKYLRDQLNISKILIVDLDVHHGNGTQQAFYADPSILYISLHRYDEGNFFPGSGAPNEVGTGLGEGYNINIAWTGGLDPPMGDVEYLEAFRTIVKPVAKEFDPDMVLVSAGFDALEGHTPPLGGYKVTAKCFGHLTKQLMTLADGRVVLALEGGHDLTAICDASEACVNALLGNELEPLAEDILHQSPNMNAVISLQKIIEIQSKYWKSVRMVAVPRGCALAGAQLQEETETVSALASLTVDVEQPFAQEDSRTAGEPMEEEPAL
- procedure_summary: HDAC9 biochemical assay, class IIa-specific substrate
- condition_description: read-out: HDAC Isoform IC50 (nM) 9
endpoint_name: IC50

# compound, IC50
records = [
    ("FC(F)(F)c1nc(-c2ccc(CN(c3cnccn3)c3ncccc3C3CC3)s2)no1 [Example AM]", "≤ 10000 nM"),
    ("O=C(c1ccc(N(Cc2ccc(-c3noc(C(F)(F)F)n3)s2)c2cnccn2)nn1)N1CC(O)(C(F)(F)F)C1 [Example FK]", "≤ 500 nM"),
    ("COc1cnc(N(Cc2ccc(-c3noc(C(F)(F)F)n3)s2)c2cnccn2)cn1 [Example BI]", "≤ 10000 nM"),
    ("CC(C)OC1CN(C(=O)c2cnnc(N(Cc3ccc(-c4noc(C(F)(F)F)n4)s3)c3cnccn3)c2)C1 [Example GC]", "≤ 10000 nM"),
    ("CNC(=O)c1cnnc(N(Cc2ccc(-c3noc(C(F)(F)F)n3)s2)c2cnccn2)c1 [Example DY]", "≤ 10000 nM"),
    ("CS(=O)(=O)c1nccc(N(Cc2ccc(-c3noc(C(F)(F)F)n3)s2)c2cnccn2)n1 [Example CE]", "≤ 10000 nM"),
    ("FC(F)(F)c1nc(-c2ccc(CN(c3cnccn3)c3ccc(-n4cccn4)nn3)s2)no1 [Example DM]", "≤ 1000 nM"),
    ("FC(F)(F)c1cnnc(N(Cc2ccc(-c3noc(C(F)(F)F)n3)s2)c2ccc(N3CCOCC3)nn2)c1 [Example EX]", "≤ 10000 nM"),
]

API: value(readout= IC50, system= Human HDAC9 (Homo sapiens, UniProt Q9UKV0), query= O=C(c1cnnc(N(Cc2ccc(-c3noc(C(F)(F)F)n3)s2)c2cnccn2)c1)N1CC2(COC2)C1 [Example FZ] )
≤ 10000 nM

* * *

- assay_system: Human HDAC4 (Homo sapiens, UniProt P56524)
- Construct: amino acids 627-1085 with N-terminal GST tag; GST (N); host or cells: baculovirus expression system
- Sequence (P56524 627-1084 limits assumed): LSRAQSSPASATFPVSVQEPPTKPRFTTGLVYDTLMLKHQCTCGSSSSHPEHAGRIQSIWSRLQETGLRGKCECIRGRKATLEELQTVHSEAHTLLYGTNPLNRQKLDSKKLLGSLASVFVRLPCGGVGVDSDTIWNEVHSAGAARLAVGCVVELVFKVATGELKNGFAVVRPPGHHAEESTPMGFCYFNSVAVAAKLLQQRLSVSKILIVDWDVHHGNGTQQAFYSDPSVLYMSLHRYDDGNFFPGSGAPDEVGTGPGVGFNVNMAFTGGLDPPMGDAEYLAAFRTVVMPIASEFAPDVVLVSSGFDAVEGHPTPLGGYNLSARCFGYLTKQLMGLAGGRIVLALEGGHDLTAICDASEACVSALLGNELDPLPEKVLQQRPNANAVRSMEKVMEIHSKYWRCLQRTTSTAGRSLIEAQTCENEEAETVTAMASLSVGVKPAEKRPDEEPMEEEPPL
- procedure_summary: HDAC4 biochemical assay, class IIa-specific substrate
- condition_description: read-out: HDAC Isoform IC50 (nM) 4
Below, each of the compounds is paired with its reported IC50 value.

# annotated cases, reported IC50 shown
# smiles_entry, IC50
records = [
    ("Cc1cnc(N(Cc2ccc(-c3noc(C(F)(F)F)n3)s2)c2cnccn2)c(C)n1", "≤ 500 nM"),
    ("O=C(c1cnnc(N(Cc2ccc(-c3noc(C(F)(F)F)n3)s2)c2cnccn2)c1)N1CC(C(F)(F)F)C1", "≤ 1000 nM"),
    ("FC(F)(F)c1nc(-c2ccc(CN(c3cnccn3)c3ccc4nccn4n3)s2)no1", "≤ 1000 nM"),
]

State its IC50 on Human HDAC4 (Homo sapiens, UniProt P56524): `FC(F)(F)c1nc(-c2ccc(CN(c3cnccn3)c3ccc4ncccc4n3)s2)no1`
≤ 500 nM

Could you share what IC50 was measured for `FC(F)(F)c1nc(-c2ccc(CN(c3cnccn3)c3cc4nccnc4cn3)s2)no1` , tested on Human HDAC4 (Homo sapiens, UniProt P56524)?
≤ 10000 nM

// fetch Human HDAC4 (Homo sapiens, UniProt P56524) IC50 for `CN(C)c1cc(N(Cc2ccc(-c3noc(C(F)(F)F)n3)s2)c2cnccn2)ncn1`
≤ 10000 nM

Notebook entry, Human HDAC4 (Homo sapiens, UniProt P56524) assay: IC50 of `CS(=O)(=O)c1cc(N(Cc2ccc(-c3noc(C(F)(F)F)n3)s2)c2cnccn2)ncn1` = ?
≤ 1000 nM

Hello, I am looking for reported IC50 with Human HDAC4 (Homo sapiens, UniProt P56524) for `N#Cc1cnnc(N(Cc2ccc(-c3noc(C(F)(F)F)n3)s2)c2cnccn2)c1` . Could you help?
≤ 10000 nM

Query the reported IC50 for Human HDAC4 (Homo sapiens, UniProt P56524); item: `O=C(c1ccc(N(Cc2ccc(-c3noc(C(F)(F)F)n3)s2)c2cnccn2)nn1)N1C[C@@H]2C[C@H]1C[S@@+]2[O-]`
≤ 500 nM

What value of IC50 on Human HDAC4 (Homo sapiens, UniProt P56524) does `[O-][S+]1CCN(Cc2ccc(N(Cc3ccc(-c4noc(C(F)(F)F)n4)s3)c3cnccn3)nn2)CC1` have?
≤ 1000 nM

* * *

Catalogue of IC50 values
- assay_system: Human HDAC1 (Homo sapiens)
- Construct: full length with C-terminal His-tag and C-terminal FLAG-tag; His (C); FLAG (C); host or cells: baculovirus expression system
- Sequence (Q13547 whole entry): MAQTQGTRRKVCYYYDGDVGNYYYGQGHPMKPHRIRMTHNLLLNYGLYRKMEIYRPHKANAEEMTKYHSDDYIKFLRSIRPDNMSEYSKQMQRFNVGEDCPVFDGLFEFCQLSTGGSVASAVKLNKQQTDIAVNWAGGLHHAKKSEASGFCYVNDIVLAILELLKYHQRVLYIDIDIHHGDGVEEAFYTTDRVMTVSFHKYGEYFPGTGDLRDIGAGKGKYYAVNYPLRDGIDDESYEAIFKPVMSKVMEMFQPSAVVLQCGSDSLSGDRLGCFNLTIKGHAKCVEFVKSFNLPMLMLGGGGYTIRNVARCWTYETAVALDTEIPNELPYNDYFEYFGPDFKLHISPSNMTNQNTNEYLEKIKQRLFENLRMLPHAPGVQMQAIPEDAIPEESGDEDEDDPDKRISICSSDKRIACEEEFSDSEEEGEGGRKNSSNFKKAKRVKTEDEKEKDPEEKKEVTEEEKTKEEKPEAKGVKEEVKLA
- procedure_summary: HDAC1 biochemical assay, AMC-labeled peptide substrate
- condition_description: read-out: HDAC Isoform IC50 (nM) 1

The examples below pair each entry with its known result.
# smiles_entry, assay_system, IC50
data = [
    ("FC(F)(F)c1nc(-c2ccc(CN(c3ccc(N4CCOCC4)cn3)c3cnccn3)s2)no1", "Human HDAC1 (Homo sapiens)", "≤ 10000 nM"),
    ("FC(F)(F)c1nc(-c2ccc(CN(c3cnccn3)c3cc(CN4CCCC4)ccn3)s2)no1", "Human HDAC1 (Homo sapiens)", "> 10000 nM"),
    ("FC(F)(F)c1cnnc(N(Cc2ccc(-c3noc(C(F)(F)F)n3)s2)c2ccc(C(F)(F)F)nn2)c1", "Human HDAC1 (Homo sapiens)", "> 10000 nM"),
    ("COC1CN(Cc2ccnc(N(Cc3ccc(-c4noc(C(F)(F)F)n4)s3)c3cnccn3)c2)C1", "Human HDAC1 (Homo sapiens)", "> 10000 nM"),
    ("FC(F)(F)c1nc(-c2ccc(CN(c3cnccn3)c3nccnn3)s2)no1", "Human HDAC1 (Homo sapiens)", "> 10000 nM"),
    ("O=C(c1cnnc(N(Cc2ccc(-c3noc(C(F)(F)F)n3)s2)c2cnccn2)c1)N1CC(F)(F)C1", "Human HDAC1 (Homo sapiens)", "> 10000 nM"),
    ("CS(=O)(=O)c1ccc(N(Cc2ccc(-c3noc(C(F)(F)F)n3)s2)c2cnccn2)nn1", "Human HDAC1 (Homo sapiens)", "≤ 10000 nM"),
]

# input for lookup
IC50 lookup needed for `O=C(c1cnnc(N(Cc2ccc(-c3noc(C(F)(F)F)n3)s2)c2cnccn2)c1)N1C2CCC1COC2` , thanks.
> 10000 nM

* * *

A collection of molecules and their measured IC50
- assay_system: Human HDAC4 (Homo sapiens, UniProt P56524)
- Construct: amino acids 627-1085 with N-terminal GST tag; GST (N); host or cells: baculovirus expression system
- procedure_summary: HDAC4 biochemical assay, class IIa-specific substrate
- condition_description: read-out: HDAC Isoform IC50 (nM) 4

# smiles_entry, reading
records = [
    ("FC(F)(F)c1nc(-c2ccc(CN(c3cnccn3)c3ncccc3C3CC3)s2)no1", "≤ 500 nM"),
    ("COc1cncnc1N(Cc1ccc(-c2noc(C(F)(F)F)n2)s1)c1cnccn1", "≤ 10000 nM"),
    ("Cc1ncc(N(Cc2ccc(-c3noc(C(F)(F)F)n3)s2)c2cnccn2)nc1C", "≤ 10000 nM"),
    ("FC(F)(F)c1nc(-c2ccc(CN(c3cnccn3)c3cnc(N4CCOCC4)cn3)s2)no1", "≤ 1000 nM"),
    ("CC(=O)Nc1cnnc(N(Cc2ccc(-c3noc(C(F)(F)F)n3)s2)c2cnccn2)c1", "≤ 1000 nM"),
    ("O=C(c1ccc(N(Cc2ccc(-c3noc(C(F)(F)F)n3)s2)c2cnccn2)nn1)N1CCCCC1", "≤ 500 nM"),
]

Any idea what IC50 was measured for `FC(F)(F)c1nc(-c2ccc(CN(c3cnccn3)c3cncnc3C3CC3)s2)no1` ?
≤ 500 nM

Returns the measured IC50 for the input molecule. Input: `CNC(=O)c1ccc(N(Cc2ccc(-c3noc(C(F)(F)F)n3)s2)c2cnccn2)nn1`
≤ 1000 nM

Every entry's value here was drawn from patent US20210038607A1.
